Test: Toxicity liver stage against HepG2, at 10uM
Assay type: cell-based
Design: test concentration 10 uM, cell line HepG2-A16-CD81EGFP
Details: human, HepG2-A16-CD81EGFP cells; read-out: INHIBITION
Record form. Attribute: cytotoxicity at 10 µM. Fill in for each entry.
Answer format: numeric, % implied, no suffix.

Supply measured cytotoxicity at 10 µM of CCC(NC(=O)c1cc(CC(C)C)nn1C)c1cc(C)ccn1 (centres undefined) in your reply.
-138

Please list cytotoxicity at 10 µM recorded for the compound `O=C(c1cc(-n2cccn2)ccn1)N(CC(F)(F)F)C1CCCC1`
5.49

Report cytotoxicity at 10 µM, nothing else, for this compound: `CCOc1cccc2c1OCC(C(=O)NS(=O)(=O)c1ccc(C)s1)=C2`
-9.02

# return recorded cytotoxicity at 10 µM for entry `CC(=O)N1CC2(CCCC2)c2ccccc21`
0.83

Name the recorded cytotoxicity at 10 µM of the item `O=C(Nc1cnc2n1CCCC2)C1CCNCC1` in your answer.
4.25

Tell me cytotoxicity at 10 µM reported for `O=C(NCc1cccs1)[C@H]1CC[C@@H]2[C@@H](CCN2Cc2ccoc2)O1`
-0.317

Given the compound CCC(C)CNc1ccc2oc(COC)nc2c1 (centres undefined) , write its reported cytotoxicity at 10 µM.
-22.4

Specify reported cytotoxicity at 10 µM for the compound shown: `Cc1cccc(CO[C@@H]2C[C@H]3CN(C(=O)c4cnccn4)CCN3C2)n1`
-1.79

Using known records, supply cytotoxicity at 10 µM for `CN(Cc1cccc(F)c1)C(=O)c1cc2c([nH]c1=O)CCCC2=O`
-7.45

Tell us which cytotoxicity at 10 µM value is on record for `CC(=O)N1CCCN(C(=O)c2csc(-c3ccc(C)cc3C)n2)CC1`
20.8

Recall and state the measured cytotoxicity at 10 µM for `CC(=O)NCCNc1nc(C2CCCC2)nc2c1cnn2C` .
7.39

Read the entry `CCO[C@H]1CC[C@H]2[C@H]1OCCN2C(=O)COc1ccccc1` and write its reported cytotoxicity at 10 µM.
-94

Return reported cytotoxicity at 10 µM. Input compound: `COCCN1C[C@@H]2CN(c3ncccn3)C[C@@H]2C1=O`
-11.9

Specify reported cytotoxicity at 10 µM for the compound shown: CC(C)c1nc(CN2CCCC(O)C2)cs1 (centres undefined)
-7.13

Query cytotoxicity at 10 µM for Cc1cnn(CC2CCCN2Cc2nnc(C)o2)c1 (centres undefined)
-11.2

Quote cytotoxicity at 10 µM reported for `CN1CCN(CCO)C(=O)C12CCN(c1nccs1)CC2` please.
3.88

// Input: CC(C)CC(NC(=O)c1cnn(C)c1)C(=O)Nc1cc[nH]n1 (centres undefined) . Output its cytotoxicity at 10 µM only.
-3.38

Name the recorded cytotoxicity at 10 µM of the item CCc1nnc(CN2CCOC(Cn3cc(C)cn3)C2)o1 (centres undefined) in your answer.
-6.59

Answer with the recorded cytotoxicity at 10 µM for the compound listed here: c1ccc(C2CN(C3CC3)CC3(CCN(Cc4ncc[nH]4)CC3)C2)cc1 (centres undefined)
7.31

###

Test: Toxicity liver stage against HepG2, at 10uM
Format: cell-based
Set-up: test concentration 10 uM, cell line HepG2-A16-CD81EGFP
Details: human, HepG2-A16-CD81EGFP cells; read-out: INHIBITION
Observable: cytotoxicity at 10 µM (%)
Answer format: numeric, % implied, no suffix.

# return recorded cytotoxicity at 10 µM for entry `CCc1ncc2c(n1)CN(CC(=O)N1CCc3sccc3C1)CC2`
4.83

Specify cytotoxicity at 10 µM for COc1cccc(Cn2[nH]c(C)c3c(NC(=O)C(C)OC)nnc2-3)c1 (stereo unspecified) and stop.
-2.03

Please give the documented cytotoxicity at 10 µM of `CC(=O)N1CCC2(CC1)CN(C)CC[C@H]2C(F)(F)F`
-153

Look up cytotoxicity at 10 µM of `COc1cc(N2CC3(CCN(S(C)(=O)=O)C3)C2)ncn1` and report it.
9.43

Give cytotoxicity at 10 µM for the following molecule: `COc1c(C(=O)N2CCNC(=O)C2)cnc2c1c(C)nn2C`
6.26

Using the record for CCOC(C)C(=O)N1CCN(S(C)(=O)=O)CC1 (stereo unspecified) , state its measured cytotoxicity at 10 µM.
-5.35

Complete the entry with cytotoxicity at 10 µM for `N#Cc1cccc(CN2CC[C@@H]3[C@@H]2CC(=O)N3Cc2cccnc2)c1`
5.2

Give the reported cytotoxicity at 10 µM for this molecule. Cc1cc(C)n(CC2CCCN2CCC(=O)Nc2cc(C)on2)n1 (stereo unspecified)
1.44

Identify the reported cytotoxicity at 10 µM for the following entry. Cc1nc(C)n(CC2CCCN(CCOc3ccc(F)cc3)C2)n1 (stereo unspecified)
-3.33

Look up and report measured cytotoxicity at 10 µM for this entry: `O=C1NCCCN1Cc1nc(-c2ccc(N3CCCCC3)cc2)no1`
3.24

Report cytotoxicity at 10 µM for CCCC1CN(CC(C)C)C(=O)c2cccnc2O1 (stereo unspecified)
3.04

Please report the measured cytotoxicity at 10 µM for `CO[C@H]1COCCN(C(=O)c2ccc(F)cc2)C1`
0.287

For `Cn1cc(Nc2cccc(C(=O)N(CC(N)=O)C3CCCC3)c2)cn1` , write its cytotoxicity at 10 µM.
-1.78

Identify the reported cytotoxicity at 10 µM for the following entry. `CCC(=O)NCC(=O)NCC1(c2c(F)cccc2F)CCCC1`
-0.147

Output cytotoxicity at 10 µM of CCS(=O)(=O)N1CCC(OCCCc2ccccc2)C1 (stereo unspecified)
8.59

Supply recorded cytotoxicity at 10 µM for CC(C(=O)NCc1ccnc(OC2CCCC2)c1)n1cncn1 (stereo unspecified) here.
10.4

###

Assay: Toxicity liver stage against HepG2, at 10uM
Assay type: cell-based
Set-up: test concentration 10 uM, cell line HepG2-A16-CD81EGFP
Details: human, HepG2-A16-CD81EGFP cells; read-out: INHIBITION
Observable: cytotoxicity at 10 µM (%)
Just the number please, in %, no unit attached.

Quickly give me recorded cytotoxicity at 10 µM for Cc1ccc(-c2cc(C(=O)N3CCCC3c3cccnc3)[nH]n2)o1 (centres undefined)
-1.41

Return cytotoxicity at 10 µM for the following compound: `Cc1nc(C(F)(F)F)nc(N2CCC(O)(C(=O)O)CC2)c1C`
10.4

Complete the entry with cytotoxicity at 10 µM for Cn1cc(CN2CCCC3(CCN(c4nncs4)C3)C2)cn1 (centres undefined)
5.41

Could you please provide reported cytotoxicity at 10 µM for `CN(C)C(=O)CN1CCN(C(=O)c2cnn(-c3ccccc3Cl)c2)CC1` ? Thanks!
-3.67

Respond only with cytotoxicity at 10 µM recorded for `COc1ccc(CN2CC[C@@H](O)[C@@H]2Cc2ccccc2)cc1`
4.49

Hello, please tell me recorded cytotoxicity at 10 µM for this one: CC(=O)N1CC2C[C@]2(NC(=O)c2ccco2)C1 (some centres undefined)
-2.36

Specify measured cytotoxicity at 10 µM for `COCCC1(CNC(=O)Nc2ccc(-n3cccn3)cc2)CCC1` .
-2.75

Retrieve cytotoxicity at 10 µM measured for CC(Nc1ccc(C(F)(F)F)cc1C#N)c1cccc(S(N)(=O)=O)c1 (centres undefined) and print it.
-3.09

Kindly indicate its recorded cytotoxicity at 10 µM. Item: `Cc1nn(C)c(N(C)C)c1CNCc1cccc(CN(C)C(C)C)c1`
11.4

Give the reported cytotoxicity at 10 µM for this compound. `CN1CCN(C2CCN(Cc3nc(-c4ccoc4)no3)CC2)C1=O`
-2.83

Identify measured cytotoxicity at 10 µM associated with NCC1CN(Cc2cn(CCC(N)=O)c3ccccc23)CCO1 (centres undefined)
4.01

Supply reported cytotoxicity at 10 µM belonging to this compound: `CCn1c(CN(C)C)nnc1C1CCN(Cc2ccc(Cl)cc2)CC1`
1.77

Please list cytotoxicity at 10 µM recorded for the compound `CCc1cnc(NCCS(=O)(=O)CC(C)C)nc1`
-13

Please look at this compound and report its cytotoxicity at 10 µM: CCN1CCN(c2ccc(F)cc2C(C)NCc2noc(C)n2)CC1 (centres undefined)
1.8

###

I'd appreciate it if you could supply cytotoxicity at 10 µM values for the items below.
Assay: Toxicity liver stage against HepG2, at 10uM
Format: cell-based
Parameters: test concentration 10 uM, cell line HepG2-A16-CD81EGFP
Conditions: human, HepG2-A16-CD81EGFP cells; read-out: INHIBITION
Give the value; after it, write the unit.

Quick one: give measured cytotoxicity at 10 µM for `O=C(Cc1ccc2c(c1)OCCO2)NCCc1nnc2n1CCC2`
-9.78%

Look up cytotoxicity at 10 µM of CC(NC(=O)C1=NN(C)C(=O)CC1)c1ccc(F)cc1F (stereo not given) and report it.
-4.4%

Note cytotoxicity at 10 µM for the compound shown: `COc1c(CNCC(=O)N2CCN(C)CC2)c(C(C)C)nn1C`
7.45%

Find the measured cytotoxicity at 10 µM of `CC(C)NC(=O)N1CCc2ncnc(-c3ccncc3)c2CC1` and report it.
-0.736%

Give the value of cytotoxicity at 10 µM reported for the following: COCCNC(=O)c1sc2ccccc2c1C1CCC(CN)CC1 (stereo not given)
-2.98%

Assign cytotoxicity at 10 µM to the following record: `CN1CCC(c2nnc3n2CCN(S(=O)(=O)c2ccccc2)C3)CC1`
-2.02%

Report cytotoxicity at 10 µM, nothing else, for this compound: `Cn1cccc1C(=O)N1C[C@@H]2C[C@@H](c3nc(C4CC4)cs3)O[C@@H]2C1`
-113%

Quickly give me recorded cytotoxicity at 10 µM for `CCCNC(=O)c1ncn2c1CN(CC(C)C)S(=O)(=O)c1ccccc1-2`
-72%

Indicate its recorded cytotoxicity at 10 µM; the compound in question is Cc1noc(C)c1C(=O)N1CCC(c2[nH]ncc2S(C)(=O)=O)C1 (stereo not given)
-9.83%

Look up and report measured cytotoxicity at 10 µM for this entry: `CC1CCN(c2nccn3c(=O)[nH]nc23)CC1`
6.09%

Note cytotoxicity at 10 µM for the compound shown: `COc1ccc(CNC(=O)Nc2ccc(S(=O)(=O)C(F)F)cc2)cc1`
33.6%

Check the records and state cytotoxicity at 10 µM for CC(O)C1CCN(Cc2cnc3c(-c4ccccc4)cnn3c2)CC1 (stereo not given)
-0.537%

Answer with reported cytotoxicity at 10 µM of CCCC(NC(=O)NCc1cccc(N(C)C)n1)c1ccccn1 (stereo not given)
19.8%

Report cytotoxicity at 10 µM, nothing else, for this compound: `NC(=O)c1ccc(CN2CCC(N3CCCC3)CC2)cc1`
-2.3%

Fill in reported cytotoxicity at 10 µM for this entry: `CC(C)c1ccc(OCCNC(=O)c2ccoc2)cc1`
-1.92%

Quick one: give measured cytotoxicity at 10 µM for `CC(C)NS(=O)(=O)c1cc(C(=O)O)cc(-c2ccccc2F)c1`
-7.56%

Read the entry `c1cc2cc[nH]c2c(CC2CN(Cc3cncs3)C2)n1` and write its reported cytotoxicity at 10 µM.
-0.54%

Tell me its cytotoxicity at 10 µM given CCOC(C)c1nccn1Cc1c(C)noc1C (stereo not given) as the entry.
3.11%

Entry Cc1c(C)n(CC(O)CN2CCCCCC2)c2c(Cl)cccc12 (stereo not given) needs its cytotoxicity at 10 µM filled in; supply it.
-21.9%

Output measured cytotoxicity at 10 µM for this item: `Cc1nc(-c2ccc(S(=O)(=O)N3CCOCC3)cc2)co1`
-9.52%

Reference source for all entries: ChEMBL document CHEMBL4513216
